# Tested on: OVCAR-5 ovarian
# Method Description: NCI-60 one-dose screen, 48 h
# Condition Context: 10 µM unless noted
Compounds without any hit were thinned out: in the full panel of roughly 83,000, 20% have a hit. Active and inactive are the calls of the source. Rule for the calls: active = growth percent below 10; inactive = the rest.
Classes used: T = active, F = inactive

| Molecule | Measurement Target | Assigned Category |
| --- | --- | --- |
| Cc1ccc(C2=Nc3c(N)ncnc3NC(c3ccc4c(c3)OCO4)C2)cc1 (centres undefined) | OVCAR-5 ovarian | F |
| O=C(CSc1nc2ccc([N+](=O)[O-])cc2[nH]1)Nc1cccc(C(F)(F)F)c1 | OVCAR-5 ovarian | F |
| CCCCN[C@H]1CC[C@@]2(C)[C@@H](CC[C@@]3(C)[C@H]2[C@H](O)C[C@H]2/C(=C(\CCC=C(C)C)C(=O)OC)[C@@H](OC(C)=O)C[C@@]23C)[C@@H]1C | OVCAR-5 ovarian | F |
| O=C(Cn1c(=O)sc2nc3ccccc3nc21)Nc1ncc(Cc2cccc(Cl)c2Cl)s1 | OVCAR-5 ovarian | F |
| Cn1cc(-c2csc(-c3ccc(Cl)cc3)n2)c2cccnc21 | OVCAR-5 ovarian | T |
| COc1cc(-c2nc(SCC(C)C)nc(Nc3cccc4ccccc34)c2C#N)cc(OC)c1OC | OVCAR-5 ovarian | F |
| CCOC(=O)c1c2c(n3ccc(C)cc13)C(=O)c1ccccc1C2=O | OVCAR-5 ovarian | F |
| CO[C@]12C=C/C(=C(/C(=O)OCc3cccnc3)C(=O)CCCCCCCC[C@@]3(OC)C=C/C(=C(/C(=O)OCc4cccnc4)C(=O)CCCCCCCC1)O3)O2 | OVCAR-5 ovarian | T |
| COc1cccc(NC(=O)Cn2cc(CN3CCN(c4ccnc5cc(Cl)ccc45)CC3)nn2)c1 | OVCAR-5 ovarian | F |
